Biological target: carbonic anhydrase II (Homo sapiens (Human))
Assay: Carbonic anhydrase II enzyme activity inhibition (4-NPA esterase activity)
Type: biochemical
Settings: 4-nitrophenyl acetate esterase activity, absorbance at 405 nm
RECORDED ENDPOINT: IC50

MOLECULE: Nc1ncnc2c1c(C#Cc1cccc3ccccc13)cn2[C@@H]1O[C@H](CNS(N)(=O)=O)[C@@H](O)[C@H]1O
IC50: > 1 µM

MOLECULE: NS(=O)(=O)OC[C@@H]1C[C@@H](n2ccc3c(N[C@H]4CCc5ccccc54)ncnc32)C[C@@H]1O [Comparative Example, reference compound]
IC50: 0.012 µM

MOLECULE: Cc1ccccc1-c1nc(-c2cn([C@@H]3O[C@H](CNS(N)(=O)=O)[C@@H](O)[C@H]3O)c3ncnc(N)c23)cs1
IC50: > 1 µM

MOLECULE: Nc1ncnc2c1c(C#Cc1c(F)cc(N3CC[C@@H](O)C3)cc1F)cn2[C@@H]1C[C@H](CNS(N)(=O)=O)[C@@H](O)[C@H]1O
IC50: > 1 µM

MOLECULE: CCSc1cccc(F)c1C#Cc1cn([C@@H]2O[C@H](CNS(N)(=O)=O)[C@@H](O)[C@H]2O)c2ncnc(N)c12
IC50: > 1 µM

Alright, here's another molecule for you.
Briefly, IC50 measured for "Nc1ncnc2c1c(C#Cc1c(F)cc(N3CC[C@@H](F)C3)cc1F)cn2[C@@H]1O[C@H](CNS(N)(=O)=O)[C@@H](O)[C@H]1O" : > 1 µM
